Every entry's value here was drawn from paper PMC11003488.

- Tested on: Prostate cancer cell lines
- test-name: NCI-60 SRB growth inhibition, subpanel
- Format: cell-based, human
- experimental-parameters: Homo sapiens, read-out: MG-MID GI50
quantity: GI50
Please answer in the form of a number followed by its unit of measurement.

Guide cases for GI50, answers given:
- smiles-input: "O=C(/C=C/c1cccnc1)c1cccc(NCc2csc3ccccc23)c1"
  value-measured: "5.56 µM"
- smiles-input: "COc1ccc(CNc2cccc(C(=O)/C=C/c3ccc(NC(C)=O)cc3)c2)cc1OC"
  value-measured: "3.53 µM"
- smiles-input: "CC(=O)Nc1ccc(CNc2cccc(C(=O)/C=C/c3cccnc3)c2)cc1"
  value-measured: "4.1 µM"

Now for the molecule whose GI50 we want.
Returns the measured GI50 for the input molecule. Input: O=C(/C=C/c1cccnc1)c1cccc(NCc2ccc(CO)cc2)c1
12.2 µM

====

// inhibition at 10 µM lookup, one value per entry
- Tested on: K-562
- test-name: NCI-60 SRB growth inhibition, one-dose and five-dose
- Format: cell-based
- experimental-parameters: Homo sapiens, K562, read-out: percent growth inhibition
Numeric only. Scale: %

- smiles-input: "COc1ccc(CNc2cccc(C(=O)/C=C/c3cccnc3)c2)cc1OC"
  inhibition at 10 µM, %: 89
- smiles-input: "CC(=O)Nc1ccc(CNc2cccc(C(=O)/C=C/c3cccnc3)c2)cc1"
  inhibition at 10 µM, %: 99.8

For K-562, provide inhibition at 10 µM of CC(=O)Nc1ccc(/C=C/C(=O)c2cccc(NCc3ccc(C)cc3)c2)cc1 please.
64.2

Consider next the compound CC(=O)Nc1ccc(/C=C/C(=O)c2cccc(NCc3ccc(CO)cc3)c2)cc1 in the same way.
104

====

- Tested on: MOLT-4
- test-name: NCI-60 SRB growth inhibition, one-dose and five-dose
- Assay type: cell-based
- experimental-parameters: Homo sapiens, MOLT-4
# if measured GI50 < 3000 nM: class 1  # else: class 0

Illustrative cases are given below, each with its answer.
- smiles-input: "CC(=O)Nc1ccc(/C=C/C(=O)c2cccc(NCc3ccc(CO)cc3)c2)cc1"
  label: "class 1"
- smiles-input: "CC(=O)Nc1ccc(CNc2cccc(C(=O)/C=C/c3cccnc3)c2)cc1"
  label: "class 1"
- smiles-input: "COc1ccc(CNc2cccc(C(=O)/C=C/c3ccc(NC(C)=O)cc3)c2)cc1OC"
  label: "class 1"
- smiles-input: "CC(=O)Nc1ccc(/C=C/C(=O)c2cccc(NCc3csc4ccccc34)c2)cc1"
  label: "class 1"

Dear reviewer, please state whether O=C(/C=C/c1cccnc1)c1cccc(NCc2csc3ccccc23)c1 has GI50 strictly beneath 3000 nM.
class 0

====

- Test system: COLO 205
- test-name: NCI-60 SRB growth inhibition, one-dose and five-dose
- Type: cell-based
- experimental-parameters: Homo sapiens, COLO 205, read-out: percent growth inhibition
Listing: inhibition at 10 µM of selected molecules
The response must be a number in % with no trailing unit.

Field: example entries. Status: answers known.
- molecule: "CC(=O)Nc1ccc(/C=C/C(=O)c2cccc(NCc3ccc(NC(C)=O)cc3)c2)cc1 [Compound 5g]"
  inhibition at 10 µM / %: 30.7
- molecule: "O=C(/C=C/c1cccnc1)c1cccc(NCc2ccc(CO)cc2)c1 [Compound 5e]"
  inhibition at 10 µM / %: 37.3
- molecule: "CC(=O)Nc1ccc(/C=C/C(=O)c2cccc(NCc3ccc(CO)cc3)c2)cc1 [Compound 5j]"
  inhibition at 10 µM / %: 150
- molecule: "CC(=O)Nc1ccc(CNc2cccc(C(=O)/C=C/c3c[nH]cn3)c2)cc1 [Compound 5l]"
  inhibition at 10 µM / %: -8.23

Could you now consider this next molecule?
Bench note: what inhibition at 10 µM did CC(=O)Nc1ccc(CNc2cccc(C(=O)/C=C/c3cccnc3)c2)cc1 [Compound 5b] show?
156

====

- Test system: HCC-2998
- test-name: NCI-60 SRB growth inhibition, one-dose and five-dose
- Assay type: cell-based
- experimental-parameters: Homo sapiens, HCC 2998, read-out: percent growth inhibition
quantity: inhibition at 10 µM (%)
Express it in %; write the number only.

Observe how each entry below is paired with its result.
- smiles-input: "CC(=O)Nc1ccc(/C=C/C(=O)c2cccc(NCc3ccc(C)cc3)c2)cc1"
  unit-abbrev: "%"
  inhibition at 10 µM: 15.2
- smiles-input: "O=C(/C=C/c1c[nH]cn1)c1cccc(NCc2ccc(CO)cc2)c1"
  unit-abbrev: "%"
  inhibition at 10 µM: -0.68
- smiles-input: "O=C(/C=C/c1c[nH]cn1)c1cccc(NCc2ccc3oc(=O)ccc3c2)c1"
  unit-abbrev: "%"
  inhibition at 10 µM: 16.8
- smiles-input: "CC(=O)Nc1ccc(/C=C/C(=O)c2cccc(NCc3ccc4oc(=O)ccc4c3)c2)cc1"
  unit-abbrev: "%"
  inhibition at 10 µM: 10

Then there is this compound:
# get_value(readout='inhibition at 10 µM', item= CC(=O)Nc1ccc(/C=C/C(=O)c2cccc(NCc3ccc(CO)cc3)c2)cc1 )
199

====

- Test system: SNB-19
- test-name: NCI-60 SRB growth inhibition, one-dose and five-dose
- Format: cell-based
- experimental-parameters: Homo sapiens, SNB-19
Criterion: GI50 strictly less than 9 µM. Met: Satisfied. Not met: Not satisfied.

// known answers, use as guide
- smiles-input: "CC(=O)Nc1ccc(CNc2cccc(C(=O)/C=C/c3cccnc3)c2)cc1"
  label: "Satisfied"
- smiles-input: "CC(=O)Nc1ccc(/C=C/C(=O)c2cccc(NCc3csc4ccccc34)c2)cc1"
  label: "Satisfied"
- smiles-input: "CC(=O)Nc1ccc(/C=C/C(=O)c2cccc(NCc3ccc(CO)cc3)c2)cc1"
  label: "Not satisfied"
- smiles-input: "Cc1ccc(CNc2cccc(C(=O)/C=C/c3cccnc3)c2)cc1"
  label: "Not satisfied"
- smiles-input: "CC(=O)Nc1ccc(/C=C/C(=O)c2cccc(NCc3ccc(C)cc3)c2)cc1"
  label: "Not satisfied"
- smiles-input: "CC(=O)Nc1ccc(/C=C/C(=O)c2cccc(NCc3ccc(NC(C)=O)cc3)c2)cc1"
  label: "Satisfied"
- smiles-input: "O=C(/C=C/c1cccnc1)c1cccc(NCc2ccc(CO)cc2)c1"
  label: "Not satisfied"
- smiles-input: "O=C(/C=C/c1cccnc1)c1cccc(NCc2csc3ccccc23)c1"
  label: "Satisfied"

For COc1ccc(CNc2cccc(C(=O)/C=C/c3ccc(NC(C)=O)cc3)c2)cc1OC , is the recorded GI50 below the cut-off of 9 µM?
Satisfied

And what about the compound COc1ccc(CNc2cccc(C(=O)/C=C/c3cccnc3)c2)cc1OC ?
Not satisfied

====

- Tested on: NCI 60-cell line panel (full panel)
- test-name: NCI-60 SRB growth inhibition, full panel mean / MG-MID
- Format: cell-based, human
- experimental-parameters: Homo sapiens, 60 cell, read-out: Full panel GI50 mean
The label is condition met for GI50 below 9 µM and condition not met for GI50 equal to or exceeding 9 µM.

- smiles-input: "O=C(/C=C/c1cccnc1)c1cccc(NCc2ccc(CO)cc2)c1"
  tested-target: "NCI 60-cell line panel (full panel)"
  label: "condition not met"

Please check: GI50 for O=C(/C=C/c1cccnc1)c1cccc(NCc2csc3ccccc23)c1 , strictly under 9 µM or not?
condition met

Moving on to the next compound: COc1ccc(CNc2cccc(C(=O)/C=C/c3cccnc3)c2)cc1OC
condition met

Another compound: COc1ccc(CNc2cccc(C(=O)/C=C/c3ccc(NC(C)=O)cc3)c2)cc1OC
condition met

====

- Tested on: T-47D
- test-name: NCI-60 SRB growth inhibition, one-dose and five-dose
- Format: cell-based
- experimental-parameters: Homo sapiens, T47D
Reported GI50 is given for each of the following molecules.
Express it in µM; write the number only.

- smiles-input: "COc1ccc(CNc2cccc(C(=O)/C=C/c3cccnc3)c2)cc1OC"
  value-measured: 10
- smiles-input: "CC(=O)Nc1ccc(/C=C/C(=O)c2cccc(NCc3ccc(C)cc3)c2)cc1"
  value-measured: 10.2

Which GI50 value belongs to COc1ccc(CNc2cccc(C(=O)/C=C/c3ccc(NC(C)=O)cc3)c2)cc1OC ?
5.04

Same read-out for CC(=O)Nc1ccc(CNc2cccc(C(=O)/C=C/c3cccnc3)c2)cc1 ?
4.14

// query: CC(=O)Nc1ccc(/C=C/C(=O)c2cccc(NCc3csc4ccccc34)c2)cc1
4.14

====

Below is a list of entries, each paired with its recorded GI50 value.
- Tested on: Leukaemia cell lines
- test-name: NCI-60 SRB growth inhibition, subpanel
- Format: cell-based, human
- experimental-parameters: Homo sapiens, read-out: GI50 MG-MID

- smiles-input: "CC(=O)Nc1ccc(/C=C/C(=O)c2cccc(NCc3ccc(NC(C)=O)cc3)c2)cc1"
  quantity: "GI50"
  value-measured: "3870 nM"
- smiles-input: "COc1ccc(CNc2cccc(C(=O)/C=C/c3cccnc3)c2)cc1OC"
  quantity: "GI50"
  value-measured: "2600 nM"
- smiles-input: "CC(=O)Nc1ccc(/C=C/C(=O)c2cccc(NCc3csc4ccccc34)c2)cc1"
  quantity: "GI50"
  value-measured: "2930 nM"
- smiles-input: "CC(=O)Nc1ccc(/C=C/C(=O)c2cccc(NCc3ccc(CO)cc3)c2)cc1"
  quantity: "GI50"
  value-measured: "5360 nM"
- smiles-input: "CC(=O)Nc1ccc(CNc2cccc(C(=O)/C=C/c3cccnc3)c2)cc1"
  quantity: "GI50"
  value-measured: "2490 nM"

Which GI50 reading was recorded for the compound CC(=O)Nc1ccc(/C=C/C(=O)c2cccc(NCc3ccc(C)cc3)c2)cc1 ?
2730 nM

Query O=C(/C=C/c1cccnc1)c1cccc(NCc2ccc(CO)cc2)c1 next
3290 nM

Note, next up: COc1ccc(CNc2cccc(C(=O)/C=C/c3ccc(NC(C)=O)cc3)c2)cc1OC
2360 nM

One more compound: Cc1ccc(CNc2cccc(C(=O)/C=C/c3cccnc3)c2)cc1
3340 nM

Please give the result for O=C(/C=C/c1cccnc1)c1cccc(NCc2csc3ccccc23)c1 too.
2760 nM
